Hi there, I'd appreciate the recorded EC50 for every entry that follows.
target or system: UniProt:P04180
experimental details: MUP hydrolysis (esterase) assay
Assay type: biochemical
Design: hydrolysis of 4-methylumbelliferyl palmitate (MUP) by full-length LCAT; made in house; host or cells: HEK293F (transient transfection, secreted)
assay context: WT; compound titrated from 0.04 to 9.5 μM; read-out: MUP assay EC50
Answers are plain numbers, in µM.

Asked: Short answer please: EC50, UniProt:P04180, entry O=C1CC(O)(C(F)(F)F)c2c(C3CCN(c4cnc(C(F)(F)F)cn4)CC3)noc2N1 (centres unmarked)
Given back: 7.7

Asked: Note, next up: O=C1CC(O)(C(F)(F)F)c2c(C3CCN(c4cnc(C(F)(F)F)cn4)CC3)n[nH]c2N1 (centres unmarked)
Given back: 0.28

Asked: Note, next up: O=c1cc(C(F)(F)F)c2c(ncn2C2CCN(c3cnc(C(F)(F)F)cn3)CC2)[nH]1
Given back: 4.6

Hey, can you go through the list below and give me EC50 for every item?
1. N#Cc1cnc(N2CCC(c3n[nH]c4c3C(O)(C(F)(F)F)CC(=O)N4)CC2)cc1C(F)(F)F (centres unmarked)
2. O=C1CC(O)(C(F)(F)F)c2c(ncn2C2CCN(c3cnc(C(F)(F)F)cn3)CC2)N1 (centres unmarked)

Given back:
1: 0.16; 2: 0.32

====

target or system: LCAT R244H (Homo sapiens, UniProt P04180, R268H)
Construct: hydrolysis of 4-methylumbelliferyl palmitate (MUP) by full-length LCAT; made in house; host or cells: HEK293F (transient transfection, secreted)
Sequence (P04180 25-440 R268H): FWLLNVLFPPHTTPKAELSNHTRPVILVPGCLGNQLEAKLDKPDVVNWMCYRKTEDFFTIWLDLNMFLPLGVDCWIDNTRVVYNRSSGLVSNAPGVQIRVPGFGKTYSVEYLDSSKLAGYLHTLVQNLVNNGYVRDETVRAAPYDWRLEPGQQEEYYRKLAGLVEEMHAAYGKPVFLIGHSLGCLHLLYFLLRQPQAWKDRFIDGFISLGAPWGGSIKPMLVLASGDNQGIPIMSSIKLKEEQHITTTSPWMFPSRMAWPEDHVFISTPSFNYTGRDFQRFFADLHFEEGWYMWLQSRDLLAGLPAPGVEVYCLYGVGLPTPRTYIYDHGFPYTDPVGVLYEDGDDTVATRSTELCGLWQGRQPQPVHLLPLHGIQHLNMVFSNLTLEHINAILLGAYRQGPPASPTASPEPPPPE
experimental details: MUP hydrolysis (esterase) assay
Type: biochemical
assay context: compound titrated from 0.04 to 9.5 μM, read-out: MUP assay EC50
observation type: EC50 (nM)
Answers are plain numbers, in nM.

Hey, can you go through the list below and give me EC50 for every item?
1. O=C1CC(O)(C(F)(F)F)c2c(ncn2C2CCN(c3cnc(C(F)(F)F)cn3)CC2)N1 (centres unmarked)
2. O=C1CC(O)(C(F)(F)F)c2c(C3CCN(c4cnc(C(F)(F)F)cn4)CC3)noc2N1 (centres unmarked)
3. O=C1CC(O)(C(F)(F)F)c2c(C3CCN(c4cnc(C(F)(F)F)cn4)CC3)n[nH]c2N1 (centres unmarked)
4. N#Cc1cnc(N2CCC(c3n[nH]c4c3C(O)(C(F)(F)F)CC(=O)N4)CC2)cc1C(F)(F)F (centres unmarked)

Given back:
[470, 7600, 320, 160]
